# target.of.assay: QPCT (Homo sapiens (Human), UniProt Q16769)
# Sequence (Q16769 29-361): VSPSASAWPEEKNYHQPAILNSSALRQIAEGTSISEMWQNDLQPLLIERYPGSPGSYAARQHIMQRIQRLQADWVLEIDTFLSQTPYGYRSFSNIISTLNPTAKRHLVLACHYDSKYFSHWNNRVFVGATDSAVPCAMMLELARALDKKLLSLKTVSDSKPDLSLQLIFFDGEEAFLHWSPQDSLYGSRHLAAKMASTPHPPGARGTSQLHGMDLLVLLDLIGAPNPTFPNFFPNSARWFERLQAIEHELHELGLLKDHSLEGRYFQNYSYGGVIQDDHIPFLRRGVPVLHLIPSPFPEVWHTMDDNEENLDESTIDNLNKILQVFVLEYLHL
# test.method.notes: Assay A: biochemical QPCT activity assay (MALDI-TOF MS)
# assay.conditions: compounds of the invention, Table 2; read-out: Inhibition of QPCT: IC50
pIC50: −log10 of the molar value.
parameter.measured: pIC50

- compound: "Cn1cnnc1C1CCN(c2c(C#N)cccc2-c2cnc3nsnc3c2)CC1 [compound 43]"
  target.of.assay: "QPCT (Homo sapiens (Human), UniProt Q16769)"
  measured.number: 7.55
- compound: "Cn1cnnc1C1CCN(c2c(C#N)cccc2-c2cnc3c(c2)NCCO3)CC1 [compound 24]"
  target.of.assay: "QPCT (Homo sapiens (Human), UniProt Q16769)"
  measured.number: 7.25
- compound: "Cn1cnnc1C1CCN(c2c(C#N)cccc2-c2cncc(C3CC3)c2)CC1 [compound 15]"
  target.of.assay: "QPCT (Homo sapiens (Human), UniProt Q16769)"
  measured.number: 6.98
- compound: "Cc1cc(F)ncc1-c1cccc(C#N)c1N1CCC(F)(c2nncn2C)CC1 [compound 83]"
  target.of.assay: "QPCT (Homo sapiens (Human), UniProt Q16769)"
  measured.number: 8.52
- compound: "Cc1cc(-c2cccc(C#N)c2N2CCC(c3nncn3C)CC2)cnc1F [compound 5]"
  target.of.assay: "QPCT (Homo sapiens (Human), UniProt Q16769)"
  measured.number: 7.92
- compound: "Cn1cnnc1C1CCN(c2c(C#N)cccc2-c2cnc(F)c(OCC3CC3)c2)CC1 [compound 36]"
  target.of.assay: "QPCT (Homo sapiens (Human), UniProt Q16769)"
  measured.number: 8.70
- compound: "Cn1cnnc1C1CCN(c2c(C#N)cccc2-c2cnc3nn(C(C)(C)C)cc3c2)CC1 [compound 50]"
  target.of.assay: "QPCT (Homo sapiens (Human), UniProt Q16769)"
  measured.number: 9.00
- compound: "Cc1ccncc1-c1cccc(C#N)c1N1CCC(c2nncn2C)CC1 [compound 8]"
  target.of.assay: "QPCT (Homo sapiens (Human), UniProt Q16769)"
  measured.number: 7.51
- compound: "Cn1cnnc1C1CCN(c2c(C#N)cccc2-c2cnn3ncccc23)CC1 [compound 57]"
  target.of.assay: "QPCT (Homo sapiens (Human), UniProt Q16769)"
  measured.number: 7.96
- compound: "Cn1cnnc1C1CCN(c2c(C#N)cccc2-c2cnc3nonc3c2)CC1 [compound 7]"
  target.of.assay: "QPCT (Homo sapiens (Human), UniProt Q16769)"
  measured.number: 7.92
- compound: "COCCOc1ncc(-c2cccc(C#N)c2N2CCC(c3nncn3C)CC2)cn1 [compound 3, reference compound]"
  target.of.assay: "QPCT (Homo sapiens (Human), UniProt Q16769)"
  measured.number: 7.29
- compound: "Cn1cnnc1C1(F)CCN(c2c(C#N)cccc2-c2cnc3nn(CC(F)F)cc3c2)CC1 [compound 60]"
  target.of.assay: "QPCT (Homo sapiens (Human), UniProt Q16769)"
  measured.number: 9.00
- compound: "Cn1cnnc1C1(F)CCN(c2c(C#N)cccc2-c2cnc3nnn(Cc4ccccc4)c3c2)CC1 [compound 63]"
  target.of.assay: "QPCT (Homo sapiens (Human), UniProt Q16769)"
  measured.number: 8.52
- compound: "Cn1cnnc1C1CCN(c2c(C#N)cccc2-c2ccc(Cl)nc2)CC1 [compound 18]"
  target.of.assay: "QPCT (Homo sapiens (Human), UniProt Q16769)"
  measured.number: 6.45
- compound: "Cn1cnnc1C1(F)CCN(c2c(C#N)cccc2-c2cncc3cn(Cc4ccccc4)nc23)CC1 [compound 78]"
  target.of.assay: "QPCT (Homo sapiens (Human), UniProt Q16769)"
  measured.number: 7.38
- compound: "Cn1cnnc1C1CCN(c2c(C#N)cccc2-c2cnc3nnn(C)c3c2)CC1 [compound 40]"
  target.of.assay: "QPCT (Homo sapiens (Human), UniProt Q16769)"
  measured.number: 8.40
- compound: "Cn1cnnc1C1(F)CCN(c2c(C#N)cccc2-c2cnc3nn(C(C)(C)C(F)(F)F)cc3c2)CC1 [compound 61]"
  target.of.assay: "QPCT (Homo sapiens (Human), UniProt Q16769)"
  measured.number: 9.00
